target: T1, recombinant human MASP1 active protease (amino acids 297-699, C-terminal His Tag) (human, UniProt P48740 297-699)
T1 sequence: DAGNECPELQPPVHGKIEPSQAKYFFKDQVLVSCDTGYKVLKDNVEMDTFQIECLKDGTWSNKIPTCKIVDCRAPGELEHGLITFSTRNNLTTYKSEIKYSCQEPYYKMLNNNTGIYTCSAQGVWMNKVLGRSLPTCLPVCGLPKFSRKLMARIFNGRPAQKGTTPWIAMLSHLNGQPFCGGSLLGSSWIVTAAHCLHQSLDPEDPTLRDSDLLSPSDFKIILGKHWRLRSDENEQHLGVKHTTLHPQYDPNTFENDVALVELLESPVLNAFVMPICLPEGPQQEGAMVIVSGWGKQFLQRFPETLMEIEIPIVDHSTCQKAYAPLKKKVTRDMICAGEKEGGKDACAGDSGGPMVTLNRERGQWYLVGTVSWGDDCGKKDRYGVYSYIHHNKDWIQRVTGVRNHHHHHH
assay_overview: cell-based or functional assay
Bridge positions count the residues as written; N and C are the ends. Square brackets hold non-standard residues; d marks the D form. Ends that are not written are not given here. Phe(3-COOH) = N[C@@H](Cc1cccc(C(=O)O)c1)C(=O)O; Pro(4-spirocPr) = O=C(O)[C@@H]1CC2(CC2)CN1; Oic = O=C(O)[C@@H]1C[C@@H]2CCCC[C@@H]2N1; PEG6 = NCCOCCOCCOCCOCCOCCOCCC(=O)O; NMeI = CC[C@H](C)[C@H](NC)C(=O)O; tBuAla = CC(C)(C)C[C@H](N)C(=O)O; Pen = CC(C)(S)[C@H](N)C(=O)O; Sar = CNCC(=O)O
experimental_endpoint: human MASP1 IC50

Recorded human MASP1 IC50, per entry:
binder: [2‑(Pyrrolidine)acetyl]ICSRS[tBuAla]PPI[Pen]IPD-NH2 (disulfide 3-11) [(2-(Pyrrolidine)acetyl)-IC+SRS-((tBu)A)-PPI-(Pen)+IPD-NH2]
human MASP1 IC50: 1.3 nM
//
binder: [Sar]ICSRSLP[Oic]I[Pen]IP[PEG6]-NH2 (disulfide 3-11; N-terminus assumed; SMILES CC[C@H](C)[C@H](NC(=O)CNC)C(=O)N[C@H]1CSSC(C)(C)[C@@H](C(=O)N[C@H](C(=O)N2CCC[C@H]2C(=O)NCCOCCOCCOCCOCCOCCOCCC(N)=O)[C@@H](C)CC)NC(=O)[C@H]([C@@H](C)CC)NC(=O)[C@@H]2C[C@@H]3CCCC[C@@H]3N2C(=O)[C@@H]2CCCN2C(=O)[C@H](CC(C)C)NC(=O)[C@H](CO)NC(=O)[C@H](CCCNC(=N)N)NC(=O)[C@H](CO)NC1=O) [((N-Me)G)-IC+SRSLP-(Oic)-I-(Pen)+IP-(PEG5(22 atoms))-NH2]
human MASP1 IC50: 3.5 nM
//
binder: AICSRS[tBuAla]PPI[Pen]IPD-NH2 (disulfide 3-11; N-terminus assumed; SMILES CC[C@H](C)[C@H](NC(=O)[C@H](C)N)C(=O)N[C@H]1CSSC(C)(C)[C@@H](C(=O)N[C@H](C(=O)N2CCC[C@H]2C(=O)N[C@@H](CC(=O)O)C(N)=O)[C@@H](C)CC)NC(=O)[C@H]([C@@H](C)CC)NC(=O)[C@@H]2CCCN2C(=O)[C@@H]2CCCN2C(=O)[C@H](CC(C)(C)C)NC(=O)[C@H](CO)NC(=O)[C@H](CCCNC(=N)N)NC(=O)[C@H](CO)NC1=O) [AIC+SRS-((tBu)A)-PPI-(Pen)+IPD-NH2]
human MASP1 IC50: 2.6 nM
//
binder: AICSRS[tBuAla]P[Pro(4-spirocPr)]I[Pen]IPD-OH (disulfide 3-11; N-terminus assumed; SMILES CC[C@H](C)[C@H](NC(=O)[C@H](C)N)C(=O)N[C@H]1CSSC(C)(C)[C@@H](C(=O)N[C@H](C(=O)N2CCC[C@H]2C(=O)N[C@@H](CC(=O)O)C(=O)O)[C@@H](C)CC)NC(=O)[C@H]([C@@H](C)CC)NC(=O)[C@@H]2CC3(CC3)CN2C(=O)[C@@H]2CCCN2C(=O)[C@H](CC(C)(C)C)NC(=O)[C@H](CO)NC(=O)[C@H](CCCNC(=N)N)NC(=O)[C@H](CO)NC1=O) [AIC+SRS-((tBu)A)-P-((6S)-5-Azaspiro[2.4]heptane-6-carboxylic acid)-I-(Pen)+IPD-OH]
human MASP1 IC50: 1.57 nM

Task: Give the measured human MASP1 IC50 of AICSRSLP[Oic]I[Pen]IPQ-OH (disulfide 3-11; N-terminus assumed; SMILES CC[C@H](C)[C@H](NC(=O)[C@H](C)N)C(=O)N[C@H]1CSSC(C)(C)[C@@H](C(=O)N[C@H](C(=O)N2CCC[C@H]2C(=O)N[C@@H](CCC(N)=O)C(=O)O)[C@@H](C)CC)NC(=O)[C@H]([C@@H](C)CC)NC(=O)[C@@H]2C[C@@H]3CCCC[C@@H]3N2C(=O)[C@@H]2CCCN2C(=O)[C@H](CC(C)C)NC(=O)[C@H](CO)NC(=O)[C@H](CCCNC(=N)N)NC(=O)[C@H](CO)NC1=O) [AIC+SRSLP-(Oic)-I-(Pen)+IPQ-OH] .
Output: 3 nM

Task: Give the measured human MASP1 IC50 of [Sar][NMeI]CSRS[tBuAla]PPI[Pen]IP-NH2 (disulfide 3-11; N-terminus assumed; SMILES CC[C@H](C)[C@@H]1NC(=O)[C@@H]2CCCN2C(=O)[C@@H]2CCCN2C(=O)[C@H](CC(C)(C)C)NC(=O)[C@H](CO)NC(=O)[C@H](CCCNC(=N)N)NC(=O)[C@H](CO)NC(=O)[C@@H](NC(=O)[C@H]([C@@H](C)CC)N(C)C(=O)CNC)CSSC(C)(C)[C@@H](C(=O)N[C@H](C(=O)N2CCC[C@H]2C(N)=O)[C@@H](C)CC)NC1=O) [((N-Me)G)-((N-Me)I)-C+SRS-((tBu)A)-PPI-(Pen)+IP-NH2] .
Output: 3.7 nM

Task: Give the measured human MASP1 IC50 of AICSRSLP[Pro(4-spirocPr)]I[Pen]IPD-OH (disulfide 3-11; N-terminus assumed; SMILES CC[C@H](C)[C@H](NC(=O)[C@H](C)N)C(=O)N[C@H]1CSSC(C)(C)[C@@H](C(=O)N[C@H](C(=O)N2CCC[C@H]2C(=O)N[C@@H](CC(=O)O)C(=O)O)[C@@H](C)CC)NC(=O)[C@H]([C@@H](C)CC)NC(=O)[C@@H]2CC3(CC3)CN2C(=O)[C@@H]2CCCN2C(=O)[C@H](CC(C)C)NC(=O)[C@H](CO)NC(=O)[C@H](CCCNC(=N)N)NC(=O)[C@H](CO)NC1=O) [AIC+SRSLP-((6S)-5-Azaspiro[2.4]heptane-6-carboxylic acid)-I-(Pen)+IPD-OH] .
Output: 1.65 nM

Task: Give the measured human MASP1 IC50 of [Sar]ICSRS[tBuAla]PPI[Pen]IP[Phe(3-COOH)]-NH2 (disulfide 3-11; N-terminus assumed; SMILES CC[C@H](C)[C@H](NC(=O)CNC)C(=O)N[C@H]1CSSC(C)(C)[C@@H](C(=O)N[C@H](C(=O)N2CCC[C@H]2C(=O)N[C@@H](Cc2cccc(C(=O)O)c2)C(N)=O)[C@@H](C)CC)NC(=O)[C@H]([C@@H](C)CC)NC(=O)[C@@H]2CCCN2C(=O)[C@@H]2CCCN2C(=O)[C@H](CC(C)(C)C)NC(=O)[C@H](CO)NC(=O)[C@H](CCCNC(=N)N)NC(=O)[C@H](CO)NC1=O) [((N-Me)G)-IC+SRS-((tBu)A)-PPI-(Pen)+IP-((3-Carboxy)F)-NH2] .
Output: 2 nM

Attribution: patent US20210246166A1
